Tested on: nutsedge, yellow (yellow nutsedge, Cyperus esculentus)
Assay: Test C greenhouse herbicide test, pre- and postemergence
Format: in vivo
Details: Preemergence, 125 g ai/ha; scale 0 to 100, 0 is no effect, 100 is complete control
endpoint: Plant response rating, Nutsedge, Yellow
Lab note: write the figure by itself, no unit.

Some solved cases for reference:
| item.smiles | Plant response rating, Nutsedge, Yellow |
| --- | --- |
| Cc1ccc2sc(Br)c(-c3c(O)c(C)nn(C)c3=O)c2c1 | 90 |
| CC(=O)Oc1c(Cl)nn(C)c(=O)c1-c1c(C)sc2ccc(C(F)(F)F)cc12 | 55 |
| COC(=O)Oc1cnn(C)c(=O)c1-c1c(C)sc2ccccc12 | 0 |
| COC(=O)Oc1c(C)nn(C)c(=O)c1-c1c(C)sc2ccc(C)cc12 | 80 |

// next item, Plant response rating, Nutsedge, Yellow requested
Return Plant response rating, Nutsedge, Yellow (reported value) for this compound: `Cc1nn(C)c(=O)c(-c2ccc(Cl)c3ccccc23)c1O`
85

----------
Test system: nightshade (eastern black nightshade, Solanum ptycanthum)
Test: Test E greenhouse herbicide test, pre- and postemergence
Format: in vivo
Details: 125 g ai/ha, Preemergence; scale 0 to 100 (0 no effect, 100 complete control)
endpoint: Plant response rating, Nightshade
The response must contain the number and no unit.

Please review the entries below; each comes with its answer.
| item.smiles | Plant response rating, Nightshade |
| --- | --- |
| Cc1ccc2sc(C)c(-c3c(OC(=O)OC(C)C)c(C)nn(C)c3=O)c2c1 | 100 |
| COC(=O)Oc1c(C)nn(C)c(=O)c1-c1c(C)sc2ccc(C)cc12 | 98 |
| Cc1nn(C)c(=O)c(-c2ccc(Br)c3ccccc23)c1O | 90 |

Next, consider the following compound.
Determine its reported Plant response rating, Nightshade: `CCc1sc2c(C)cc(C)cc2c1-c1c(O)c(C)nn(C)c1=O`
98

----------
Measured Blackgrass plant response rating by item
Tested on: blackgrass (Alopecurus myosuroides)
Assay: Test D controlled growth environment herbicide test, pre- and postemergence
Format: in vivo
Conditions: Postemergence, 31 g ai/ha; scale 0 to 100 (0 no effect, 100 complete control)
Please reply with the number alone, leaving off any unit.

Solved cases (3 shown):
| compound | endpoint | number |
| --- | --- | --- |
| Cc1nn(C)c(=O)c(-c2cccc3ccccc23)c1O [Compound 11] | Blackgrass plant response rating | 25 |
| Cc1cc(C)c2ccccc2c1-c1c(O)c(C)nn(C)c1=O [Compound 21] | Blackgrass plant response rating | 80 |
| CCc1sc2ccc(C)cc2c1-c1c(O)c(C)nn(C)c1=O [Compound 47] | Blackgrass plant response rating | 25 |

Return Blackgrass plant response rating (reported value) for this compound: Cc1nn(C)c(=O)c(-c2cccc3ccc(Br)cc23)c1O [Compound 126]
15

----------
System: ragweed (common ragweed, Ambrosia elatior)
Assay: Test C greenhouse herbicide test, pre- and postemergence
Assay type: in vivo
Settings: Preemergence, 31 g ai/ha; scale 0 to 100, 0 is no effect, 100 is complete control
endpoint: Plant response rating, Ragweed

Identify Plant response rating, Ragweed associated with the compound Cc1ccc2sc(C)c(-c3c(OC(=O)OC(C)C)c(C)nn(C)c3=O)c2c1 [Compound 66]
75

Annotate the compound CCc1sc2c(C)cc(C)cc2c1-c1c(O)c(C)nn(C)c1=O [Compound 57] with its measured Plant response rating, Ragweed.
70

Give recorded Plant response rating, Ragweed. Cc1cc2ccccc2c(-c2c(O)c(C)nn(C)c2=O)c1C [Compound 34]
80

Report Plant response rating, Ragweed for Cc1cc(C)c2sc(C)c(-c3c(O)c(C)nn(C)c3=O)c2c1 [Compound 2]
65

For the compound Cc1ccc2ccccc2c1-c1c(O)c(C(F)(F)F)nn(C)c1=O [Compound 102] , report Plant response rating, Ragweed.
70

Give Plant response rating, Ragweed for the following compound: CCC(=O)Oc1c(OC)nn(C)c(=O)c1-c1c(C)sc2ccc(Cl)cc12 [Compound 131]
65

Respond only with Plant response rating, Ragweed recorded for Cc1nn(C)c(=O)c(-c2ccc(F)c3ccccc23)c1O [Compound 41]
85

Give Plant response rating, Ragweed for Cc1ccc2ccccc2c1-c1c(O)c(I)nn(C)c1=O [Compound 29]
80

Give the value of Plant response rating, Ragweed reported for the following: COC(=O)Oc1cnn(C)c(=O)c1-c1c(C)sc2ccccc12 [Compound 97]
0

----------
Tested on: pigweed (Amaranthus retroflexus)
Experiment: Test A greenhouse herbicide test, pre- and postemergence
Assay type: in vivo
Details: Preemergence, 500 g ai/ha; 0 to 100 scale where 0 is no effect and 100 is complete control
From the text: […]
endpoint: Plant response rating, Pigweed
I only need the number, thanks.

// worked examples, Plant response rating, Pigweed included
| molecule | number |
| --- | --- |
| CCC(=O)Oc1c(OC)nn(C)c(=O)c1-c1c(C)sc2ccc(Cl)cc12 [Compound 131] | 100 |
| Cc1nn(C)c(=O)c(-c2c(C)n(C)c3ccc(Cl)cc23)c1O [Compound 74] | 50 |
| CC(=O)Oc1cnn(C)c(=O)c1-c1c(C)sc2ccccc12 [Compound 120] | 70 |
| COC(=O)Oc1cnn(C)c(=O)c1-c1c(C)sc2ccccc12 [Compound 97] | 100 |
| Cc1nn(C)c(=O)c(-c2cccc3ccc(I)cc23)c1O [Compound 70] | 100 |

Report Plant response rating, Pigweed on pigweed (Amaranthus retroflexus) for this entry: COC(=O)Oc1c(OC)nn(C)c(=O)c1-c1c(C)sc2ccc(Cl)cc12 [Compound 112]
100

Name the value of Plant response rating, Pigweed reported for CCCC(=O)Oc1c(C)nn(C)c(=O)c1-c1c(C)sc2ccc(C)cc12 [Compound 105] when tested on pigweed (Amaranthus retroflexus).
100

Give the observed Plant response rating, Pigweed of Cc1cc(C)c2sc(C)c(-c3c(OC(=O)N4CCOCC4)c(C)nn(C)c3=O)c2c1 [Compound 174] for pigweed (Amaranthus retroflexus).
20

Report Plant response rating, Pigweed on pigweed (Amaranthus retroflexus) for this entry: CCCC(=O)Oc1c(C)nn(C)c(=O)c1-c1c(CC)sc2ccc(C)cc12 [Compound 107]
100

----------
Here, each record is paired with measured Plant response rating, Wheat data.
System: wheat (Triticum aestivum)
Assay: Test A greenhouse herbicide test, pre- and postemergence
Format: in vivo
Settings: Postemergence, 125 g ai/ha; 0 to 100 scale where 0 is no effect and 100 is complete control
Answer as a number with no unit attached.

| item.smiles | Plant response rating, Wheat |
| --- | --- |
| Cn1ncc(O)c(-c2cccc3ccccc23)c1=O | 0 |
| COc1nn(C)c(=O)c(-c2c(C)ccc3ccc(C)cc23)c1O | 10 |

State its Plant response rating, Wheat: `COc1ccc2sc(C)c(-c3c(O)c(C)nn(C)c3=O)c2c1`
0

Determine its reported Plant response rating, Wheat: `Cc1nn(C)c(=O)c(-c2c(C)sc3ccc(C(F)(F)F)cc23)c1O`
0

----------
The following compounds are listed with their measured Plant response rating, Pigweed values.
System: pigweed (Amaranthus retroflexus)
Experiment: Test C greenhouse herbicide test, pre- and postemergence
Format: in vivo
Conditions: Preemergence, 62 g ai/ha; scale 0 to 100, 0 is no effect, 100 is complete control
Answer with a bare number; do not write a unit.

A selection of reference data follows.
| item.smiles | target.entity | Plant response rating, Pigweed |
| --- | --- | --- |
| CC(=O)Oc1c(C)nn(C)c(=O)c1-c1c(C)cc(C)c2ccccc12 | pigweed (Amaranthus retroflexus) | 100 |
| Cc1ccc2ccccc2c1-c1c(O)c(C(F)(F)F)nn(C)c1=O | pigweed (Amaranthus retroflexus) | 85 |
| CCC(=O)Oc1c(C)nn(C)c(=O)c1-c1ccc(F)c2ccccc12 | pigweed (Amaranthus retroflexus) | 75 |
| CCc1sc2ccc(C)cc2c1-c1c(O)c(C)nn(C)c1=O | pigweed (Amaranthus retroflexus) | 100 |

Attention now turns to another entry.
// fetch Plant response rating, Pigweed; item: `COC(=O)Oc1c(C)nn(C)c(=O)c1-c1c(C)sc2ccc(C)cc12` ; system: pigweed (Amaranthus retroflexus)
100

----------
System: bluegrass (annual bluegrass, Poa annua)
Test: Test D controlled growth environment herbicide test, pre- and postemergence
Assay type: in vivo
Conditions: Postemergence, 250 g ai/ha; scale 0 to 100 (0 no effect, 100 complete control)
endpoint: Plant response rating, Bluegrass
Reply with just the number.

| item.smiles | endpoint | number |
| --- | --- | --- |
| Cc1nn(C)c(=O)c(-c2cccc3ccccc23)c1O | Plant response rating, Bluegrass | 15 |
| Cc1ccc2sc(Br)c(-c3c(O)c(C)nn(C)c3=O)c2c1 | Plant response rating, Bluegrass | 15 |
| Cc1cc(C)c2ccccc2c1-c1c(O)c(C)nn(C)c1=O | Plant response rating, Bluegrass | 50 |
| Cc1ccc2ccccc2c1-c1c(OC(=O)OC(C)C)c(C)nn(C)c1=O | Plant response rating, Bluegrass | 55 |
| Cc1nn(C)c(=O)c(-c2c(C)sc3ccc(Br)cc23)c1O | Plant response rating, Bluegrass | 25 |
| CC(=O)Oc1c(C)nn(C)c(=O)c1-c1c(C)sc2ccc(Cl)cc12 | Plant response rating, Bluegrass | 35 |
| Cc1ccc2ccccc2c1-c1c(O)c(Br)nn(C)c1=O | Plant response rating, Bluegrass | 40 |
| Cc1cc(C)c2sc(C)c(-c3c(O)c(C)nn(C)c3=O)c2c1 | Plant response rating, Bluegrass | 15 |
| Cc1nn(C)c(=O)c(-c2c(C)sc3c(C)cc(Cl)cc23)c1O | Plant response rating, Bluegrass | 40 |

Pending compound:
Specify Plant response rating, Bluegrass for `Cc1nn(C)c(=O)c(-c2ccc(Br)c3ccccc23)c1O` and stop.
15
